Ref: patent US5264420A

tested on: blood platelets; assay: Inhibition of platelet aggregation; type: cell-based
quantity-measured: IC50 (µM)

(P) O=C(O)CC(CCc1c[nH]cn1)NC(=O)CNC(=O)CCCC1CCNCC1 (stereo not drawn)
(Q) O=C(O)CC(CCc1cncn1Cc1ccccc1)NC(=O)CNC(=O)CCCC1CCNCC1 (stereo not drawn)
Which item exceeds the other in IC50, P or Q ? Lab log: write the label of the selected item as the result.
P

----------
test system: blood platelets; assay: Inhibition of platelet aggregation; format: cell-based
quantity-measured: IC50

Worked examples follow.
Return IC50 for the following compound: O=C(O)CC(CCO)NC(=O)CNC(=O)CCCC1CCNCC1 (stereo not drawn) [(8), Pib-Gly-3-[2-(hydroxy)ethyl]β-alanine]
> 1 µM

Return IC50 for the following compound: CC(CCc1ccccc1)(CC(=O)O)NC(=O)CNC(=O)CCCC1CCNCC1 (stereo not shown)
> 300 µM

Return IC50 for the following compound: `O=C(O)C[C@@H](CCc1ccccc1)NC(=O)CN(Cc1ccccc1)C(=O)CCCC1CCNCC1`
0.25 µM

Would you kindly look at the next entry?
Return IC50 for the following compound: `CCOC(=O)C[C@H](CCc1c[nH]c2ccccc12)NC(=O)CNC(=O)CCCC1CCNCC1`
> 1 µM
